experimental.protocol: Solubility of active ingredient salts in water
Format: physicochemical
measurement.context: 25° C.
Structures can show the parent of a compound that is named as a salt.
readout.kind: solubility (mg/mL)
Expressed in mg/mL, but write only the number.

Name the recorded solubility for Oc1c(-n2ccnn2)cnn1-c1cc(N2CCOCC2)ncn1 [Sodium salt (active ingredient (I))] .
26.2
